System: U2OS
Assay Text: Multiplex assay against U2OS
Format: toxicity, cell-based
Condition: human, 24 h, 10 µM, compound concentration 10 uM, replicate 1
Observable: Population Tubulin-Different-Phenotype (%)
Give just the number in %; leave the unit off.

Examples with answers:
Molecule	Unit Symbol	Endpoint Result
Cn1cc(C(=O)OCC2CCN(CCNS(C)(=O)=O)CC2)c2ccccc21	%	4
COc1ccc2[nH]c(I)c(CCNC(C)=O)c2c1 [IODOMELATONIN]	%	1

Would you kindly share the measured Population Tubulin-Different-Phenotype (%) for COc1cc2nc(N3CCN(C(=O)COc4c(OC)cccc4C(C)C)CC3)nc(N)c2cc1OC.Cl.Cl ?
50

Would you kindly share the measured Population Tubulin-Different-Phenotype (%) for CN1CCN2c3ccccc3Cc3ccccc3C2C1.Cl (stereo not given) [MIANSERIN HYDROCHLORIDE] ?
2

Would you kindly share the measured Population Tubulin-Different-Phenotype (%) for CN(C)C(=O)Cn1cc(-c2ccc(-c3nnc4ccccn34)cc2)cn1 ?
2

###

Test system: Fibroblast
Assay Text: Multiplex assay against human fibroblast
Type: toxicity, cell-based
Condition: 24 h, 10 µM, compound concentration 10 uM, replicate 2
// Population Hoechst High Intensity Objects (%) lookup, one value per entry
Provide a numeric answer, followed by its unit.

Examples with answers:
Molecule	Endpoint Result
COc1ccc2c(c1OCc1ccccc1)C[C@@H](C(=O)O)N(C(=O)C(c1ccccc1)c1ccccc1)C2	3%
Nc1nc(-c2ccco2)c2cnn(Cc3ccccc3F)c2n1	8%
Cc1c(Cc2ccc3ccccc3n2)c2cc(F)ccc2n1CC(=O)O	7%
Cc1sc2c(c1C)C(c1ccc(Cl)cc1)=N[C@H](CC(=O)OC(C)(C)C)c1nnc(C)n1-2	4%
Cc1cc(O)c(-c2ccc([C@@H](C)CN(C)C)cc2)c2c1[nH]c(=O)c1sccc12	8%
Cc1cc(-c2ccc3c(c2)CC[C@H]3N2CC3(CCN(C(=O)Cc4cn5cc(C)sc5n4)CC3)C2)ncn1	5%
CN1CCN2c3ccccc3Cc3ccccc3C2C1.Cl (centres undefined) [MIANSERIN HYDROCHLORIDE]	4%
CC(F)(F)CN1CCOc2c(nn(-c3ccccc3Cl)c2-c2ccc(Cl)cc2)C1=O	1%

API: the following record is the query input.
// fetch Fibroblast Population Hoechst High Intensity Objects (%) for COc1c(Nc2ccc(S(C)(=O)=O)nc2C)ncnc1OC1CCN(C(=O)OC(C)C)CC1
6%

###

Tested on: HEK-293T
Assay Text: Multiplex assay against HEK293T
Format: toxicity, cell-based
Condition: human, 48 h, 1 µM, compound concentration 1 uM, replicate 2
Observable: Population Normal (%)
Give just the number in %; leave the unit off.

Examples with answers:
Molecule	Population Normal (%)
CN1CCN(c2ccc(Nc3c4ccccc4nc4ccccc34)cc2)CC1.Cl.Cl.O	98
N[C@](CC1c2ccccc2Oc2ccccc21)(C(=O)O)[C@H]1C[C@@H]1C(=O)O	98
O=C(Nc1cc(-c2ccccc2)nn1-c1ccccc1F)c1ccc([N+](=O)[O-])cc1	97
CN(C)C(=O)Cn1cc(-c2ccc(-c3nnc4ccccn34)cc2)cn1	95
CCC(=O)OCC(=O)[C@@]1(OC(=O)CC)[C@@H](C)C[C@H]2[C@@H]3CCC4=CC(=O)C=C[C@]4(C)[C@@]3(Cl)[C@@H](O)C[C@@]21C [BECLOMETHASONE DIPROPIONATE]	96

Would you kindly share the measured Population Normal (%) for COc1cc2nc(N3CCN(C(=O)c4ccco4)CC3)nc(N)c2cc1OC.Cl [PRAZOSIN HYDROCHLORIDE] ?
97

Would you kindly share the measured Population Normal (%) for COC(c1ccccc1)(c1ccccc1)[C@H](Oc1nc(C)cc(C)n1)C(=O)O ?
96

Would you kindly share the measured Population Normal (%) for Cc1sc2c(c1C)C(c1ccc(Cl)cc1)=N[C@H](CC(=O)OC(C)(C)C)c1nnc(C)n1-2 ?
95

Would you kindly share the measured Population Normal (%) for Cc1nn(C)c2nc(NNC(=O)Nc3cc(Cl)nc(Cl)c3)cc(C(C)C)c12 ?
97

Would you kindly share the measured Population Normal (%) for Cc1c(Cc2ccc3ccccc3n2)c2cc(F)ccc2n1CC(=O)O ?
96

Would you kindly share the measured Population Normal (%) for COc1c(Nc2ccc(S(C)(=O)=O)nc2C)ncnc1OC1CCN(C(=O)OC(C)C)CC1 ?
94

Would you kindly share the measured Population Normal (%) for COc1cc(OC2CCN(C(C)=O)CC2)ccc1C(=O)N1CCC(N2C(=O)OCc3ccccc32)CC1 ?
97

Would you kindly share the measured Population Normal (%) for CC(C)(C)c1ccc(CSc2cnn(C(C)(C)C)c(=O)c2Cl)cc1 ?
95

Would you kindly share the measured Population Normal (%) for C[C@H](NC(=O)CNC(=O)c1cccc(Cl)c1)c1ccccc1 ?
97

Would you kindly share the measured Population Normal (%) for C[C@@H]1CC(=O)Nc2cccc(-c3ccc4c(c3)c(-c3cnn(C)c3)nn4C)c2N1 ?
97

Would you kindly share the measured Population Normal (%) for COCCn1c(C)c(C)s/c1=N\C(=O)C1C(C)(C)C1(C)C ?
97

Would you kindly share the measured Population Normal (%) for CC(F)(F)CN1CCOc2c(nn(-c3ccccc3Cl)c2-c2ccc(Cl)cc2)C1=O ?
97

Would you kindly share the measured Population Normal (%) for CN1CCN2c3ccccc3Cc3ccccc3C2C1.Cl (stereo not drawn) [MIANSERIN HYDROCHLORIDE] ?
96
